# IC50 annotations
target: GSK3β kinase (Homo sapiens (Human), UniProt P49841); test: GSK3β kinase assay (Ser/Thr 09 peptide Z-lyte FRET); type: biochemical; settings: read-out: EC50 (method: IC50)
Sequence (P49841 whole entry): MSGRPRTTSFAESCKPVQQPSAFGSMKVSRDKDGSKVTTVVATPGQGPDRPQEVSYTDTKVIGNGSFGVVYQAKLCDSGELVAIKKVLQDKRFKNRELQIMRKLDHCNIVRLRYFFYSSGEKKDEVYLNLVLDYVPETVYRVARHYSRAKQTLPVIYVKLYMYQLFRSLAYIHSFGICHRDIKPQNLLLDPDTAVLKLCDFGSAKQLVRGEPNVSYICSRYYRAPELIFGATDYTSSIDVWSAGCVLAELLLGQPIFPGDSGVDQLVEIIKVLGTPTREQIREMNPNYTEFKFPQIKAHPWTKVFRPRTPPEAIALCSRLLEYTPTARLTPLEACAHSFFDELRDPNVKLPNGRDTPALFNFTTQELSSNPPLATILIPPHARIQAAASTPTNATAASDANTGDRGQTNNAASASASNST
Observation Type: IC50 (nM)

>>> test_value("Cc1ncc(-c2ccc3[nH]nc(C(=O)N[C@@H](C(C)C)C(F)(F)F)c3c2)n1C [Compound 133]")
1350
>>> test_value("Cn1cc(-c2ccc3[nH]nc(C(=O)NC4CCN(CC(C)(C)F)CC4)c3c2)cn1 [Compound 37]")
14
>>> test_value("Cn1cc(-c2cc(F)c3[nH]nc(C(=O)NCCC(F)(F)F)c3c2)cn1 [Compound 6]")
15
>>> test_value("O=C(Nc1ccc(F)cc1)c1n[nH]c2ccc(-c3cnn(C4CCNCC4)c3)cc12 [Compound 48]")
260

###

tested on: Wnt activity (Sp5-Luc reporter in SW480 cells); test: Screening assay for Wnt activity: Sp5-Luc reporter gene assay in SW480 colon carcinoma cells; type: cell-based, human; conditions: Homo sapiens, 36 to 48 hours
Please use 1 (yes) for EC50 under 800 nM and 0 (no) for everything else, ties included.

>>> qualitative_label("CN1CCC(Oc2ccc(NC(=O)c3n[nH]c4cc(F)c(-c5cn(C)nc5CO)cc34)cc2)CC1")
"0 (no)"
>>> qualitative_label("O=C(Nc1ccc(OC(F)F)nc1)c1n[nH]c2ccc(-c3cnn(CCN4CCCC4)c3)cc12")
"0 (no)"
>>> qualitative_label("C[C@H](NC(=O)c1n[nH]c2c(F)cc(-c3cnn(C)c3)cc12)C(F)(F)F")
"0 (no)"
>>> qualitative_label("CN1CCC(n2cc(NC(=O)c3n[nH]c4ccc(-c5cnn(C)c5)cc34)cn2)CC1")
"1 (yes)"
>>> qualitative_label("Cc1ncc(-c2cc(F)c3[nH]nc(C(=O)N[C@@H](C)C(F)(F)F)c3c2)n1C")
"0 (no)"
>>> qualitative_label("CN1CCC(Oc2cc(NC(=O)c3n[nH]c4cc(F)c(-c5cnn(C)c5)cc34)ccn2)CC1")
"1 (yes)"
>>> qualitative_label("CC(C)(F)CN1CCC(NC(=O)c2n[nH]c3ccc(-c4cn[nH]c4)cc23)CC1")
"1 (yes)"
>>> qualitative_label("Cn1cc(-c2cc(Cl)c3[nH]nc(C(=O)NC4CCN(CC(C)(C)F)CC4)c3c2)cn1")
"0 (no)"
>>> qualitative_label("O=C(Nc1ccc(N2CCCC2)nc1)c1n[nH]c2ccc(-c3cnn(C4CC4)c3)cc12")
"0 (no)"
>>> qualitative_label("O=C(Nc1ccc(OC(F)F)cc1)c1n[nH]c2ccc(-c3cnn(C4CNC4)c3)cc12")
"0 (no)"
>>> qualitative_label("Cn1cc(-c2cc3c(C(=O)Nc4ccc(CN5CC(F)C5)cc4)n[nH]c3cc2F)cn1")
"1 (yes)"
>>> qualitative_label("CC(C)CN1CC[C@H](NC(=O)c2n[nH]c3ccc(-c4cnn(C5CC5)c4)cc23)[C@@H](F)C1")
"0 (no)"
>>> qualitative_label("O=C(Nc1ccc(Cl)cc1)c1n[nH]c2cc(F)c(-c3cnn(C4CCNCC4)c3)cc12")
"0 (no)"
>>> qualitative_label("CN1CC2(CCC(NC(=O)c3n[nH]c4ccc(-c5cnn(C)c5)cc34)CC2)C1")
"0 (no)"
>>> qualitative_label("CC(C)CN1CC[C@H](NC(=O)c2n[nH]c3ccc(-c4cnn(C)c4)cc23)[C@@H](F)C1")
"1 (yes)"
>>> qualitative_label("O=C(N[C@H]1CC[C@H](CN2CC(F)C2)CC1)c1n[nH]c2ccc(-c3cnn(C4CC4)c3)cc12")
"0 (no)"

###

test system: Wnt activity (Sp5-Luc reporter in SW480 cells); test: Screening assay for Wnt activity: Sp5-Luc reporter gene assay in SW480 colon carcinoma cells; assay type: cell-based, human; conditions: Homo sapiens, 36 to 48 hours
# EC50 annotations
Observation Type: EC50 (nM)

>>> test_value("CN1CCC(Oc2ccc(NC(=O)c3n[nH]c4ccc(-c5cnn(C)c5)cc34)cn2)CC1 [Compound 124]")
140
>>> test_value("Cc1ncc(-c2ccc3[nH]nc(C(=O)Nc4ccc(OC5CCN(C)CC5)cc4)c3c2)n1C [Compound 161]")
642
>>> test_value("O=C(Nc1ccc(OC(F)F)cc1)c1n[nH]c2ccc(-c3cnn(C4CCOCC4)c3)cc12 [Compound 62]")
2280
>>> test_value("CN1CCC(n2cc(-c3ccc4[nH]nc(C(=O)Nc5ccc(F)cc5)c4c3)cn2)CC1 [Compound 159]")
680

###

# IC50 annotations
molecular target: DYRK1A kinase (Homo sapiens (Human)); assay: DYRK1A kinase assay (Ser/Thr 18 peptide Z-lyte FRET); type: biochemical; settings: read-out: EC50 (method: IC50)
Observation Type: IC50 (nM)

>>> test_value("CC(C)CN1CC[C@H](NC(=O)c2n[nH]c3ccc(-c4cn[nH]c4)cc23)[C@@H](F)C1")
37
>>> test_value("CN1CCC(Oc2cccc(NC(=O)c3n[nH]c4cc(F)c(-c5cnn(C)c5)cc34)c2)CC1")
5
>>> test_value("Cn1cc(-c2cc3c(C(=O)Nc4ccc5c(c4)CNC5)n[nH]c3cc2F)cn1")
2
>>> test_value("CC(C)CN1CC[C@H](NC(=O)c2n[nH]c3ccc(-c4cnn(C5CC5)c4)cc23)[C@@H](F)C1")
813
>>> test_value("CN1CCC(n2cc(-c3ccc4[nH]nc(C(=O)Nc5ccc(F)cc5)c4c3)cn2)CC1")
23
>>> test_value("Cn1cc(-c2cc(F)c3[nH]nc(C(=O)NC4CCN(CC(F)F)CC4)c3c2)cn1")
408
>>> test_value("Cn1cc(-c2cc3c(C(=O)Nc4ccc(CN5CCC(F)(F)CC5)cc4)n[nH]c3cc2F)cn1")
107
>>> test_value("Cc1ncc(-c2ccc3[nH]nc(C(=O)N[C@@H]4CCCC[C@H]4F)c3c2)n1C")
46
>>> test_value("CC(C)CN1CC[C@@H](NC(=O)c2n[nH]c3ccc(-c4cnn(C)c4)cc23)[C@@H](F)C1")
26
>>> test_value("CC(C)(C)n1cc(-c2ccc3[nH]nc(C(=O)N[C@H]4CC[C@H](CN5CC(F)C5)CC4)c3c2)cn1")
618
>>> test_value("CN1CCC(n2cc(-c3ccc4[nH]nc(C(=O)Nc5ccc(OC(F)F)nc5)c4c3)cn2)CC1")
16
>>> test_value("CC(C)CN1CC[C@H](NC(=O)c2n[nH]c3ccc(-c4cnn(C)c4)cc23)[C@@H](F)C1")
24
>>> test_value("O=C(Nc1ccc(OC(F)F)nc1)c1n[nH]c2ccc(-c3cnn(C4CNC4)c3)cc12")
98
>>> test_value("CN1CCN(c2ccc(NC(=O)c3n[nH]c4cc(F)c(-c5cnn(C)c5)cc34)cc2)CC1")
2
>>> test_value("Cn1cc(-c2ccc3[nH]nc(C(=O)Nc4ccc(CN5CCCC5)cc4F)c3c2)cn1")
3
>>> test_value("CC(C)(F)CN1CCC(n2cc(-c3ccc4[nH]nc(C(=O)Nc5ccc(OC(F)F)cc5)c4c3)cn2)CC1")
9940
>>> test_value("Cn1cc(-c2ccc3[nH]nc(C(=O)Nc4ccc(CN5CCCC5)cc4)c3c2)cn1")
1
>>> test_value("CC(C)CN1CC[C@H](NC(=O)c2n[nH]c3c(F)cc(-c4cnn(C)c4)cc23)[C@@H](F)C1")
261
>>> test_value("O=C(N[C@H]1CC[C@H](CN2CC(F)C2)CC1)c1n[nH]c2ccc(-c3cnn(C4CC4)c3)cc12")
5

###

system: Wnt activity (Sp5-Luc reporter in SW480 cells); experiment: Screening assay for Wnt activity: Sp5-Luc reporter gene assay in SW480 colon carcinoma cells; format: cell-based, human; settings: Homo sapiens, 36 to 48 hours
pEC50: −log10 of the molar value.
# pEC50 annotations
Observation Type: pEC50

>>> test_value("Cn1cc(-c2cc3c(C(=O)N[C@@H]4CCCC[C@H]4F)n[nH]c3cc2F)cn1")
5.47
>>> test_value("Cn1cc(-c2ccc3[nH]nc(C(=O)Nc4cnn(C5CCNCC5)c4)c3c2)cn1")
6.15
>>> test_value("O=C(Nc1ccc(F)cc1)c1n[nH]c2ccc(-c3cnn(C4CNC4)c3)cc12")
5.34
>>> test_value("Cn1cc(-c2ccc3[nH]nc(C(=O)N[C@@H]4CCCC[C@H]4F)c3c2)cn1")
5.70
>>> test_value("CC(C)n1cc(-c2cc3c(C(=O)Nc4ccc(OC5CCN(C)CC5)cc4)n[nH]c3cc2F)cn1")
5.94
>>> test_value("CN1CCC(Nc2ccc(NC(=O)c3n[nH]c4cc(F)c(-c5cnn(C)c5)cc34)cc2)CC1")
6.56
>>> test_value("CN1CCC(n2cc(-c3cc4c(C(=O)Nc5ccc(OC(F)F)cc5)n[nH]c4cc3F)cn2)CC1")
6.26
>>> test_value("Cc1ncc(-c2ccc3[nH]nc(C(=O)NC4CCN(c5ccc(F)cc5)CC4)c3c2)n1C")
5.35
>>> test_value("CN1CCC(CNC(=O)c2n[nH]c3ccc(-c4cnn(C)c4)cc23)CC1")
5.41
>>> test_value("CN1CCC(n2cc(-c3ccc4[nH]nc(C(=O)Nc5cncc(F)c5)c4c3)cn2)CC1")
6.45
>>> test_value("CN1CCC(Oc2ccc(NC(=O)c3n[nH]c4cc(F)c(-c5ccn(C)n5)cc34)cc2)CC1")
5.45
>>> test_value("Cc1c(-c2cc3c(C(=O)Nc4ccc(OC5CCN(C)CC5)cc4)n[nH]c3cc2F)cnn1C")
6.94
